molecular target: KRAS WT (Homo sapiens (Human)); test: KRAS WT Biochemical Assay, BODIPY-GDP Exchange TR-FRET (Example 502; 0.06 nM KRAS WT, 15 nM GDP, 300 nM SOS1, 120-minute incubation); settings: read-out: KRas HTRF IC50
Sequence (P01116-2 other isoform, or with tags, fused parts or gaps): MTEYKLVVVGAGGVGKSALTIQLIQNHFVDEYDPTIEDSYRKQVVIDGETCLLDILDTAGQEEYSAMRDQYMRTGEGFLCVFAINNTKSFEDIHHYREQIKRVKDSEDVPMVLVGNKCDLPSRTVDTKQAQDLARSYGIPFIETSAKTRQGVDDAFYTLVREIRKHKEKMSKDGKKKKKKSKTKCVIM
metric_name: IC50 (nM)
Just the number please, in nM, no unit attached.

Example entries and their recorded answers appear below.
{"columns": ["compound", "metric_name", "observed_measurement"],
 "data": [
  ["Cc1c(F)c(N)cc(-c2nc3c4c(nc(OC[C@H]5C[C@@H]6COCCN65)nc4c2F)N2C[C@H]4CC[C@H](N4)[C@H]2[C@H](C)O3)c1C(F)(F)F (single isomer, unassigned) [159 (diast. 1)]", "IC50", 64],
  ["Cc1c(F)c(N)cc(-c2nc3c4c(nc(OCC56C[C@H](F)CN5C[C@@H](F)C6)nc4c2F)N2C[C@H]4CC[C@H](N4)[C@H]2[C@H](C)O3)c1C(F)(F)F", "IC50", 780]
]}

[Q] Can you share its IC50? I mean this compound: Cc1c(F)c(N)cc(-c2nc3c4c(nc(OCC5(CN6CC7(COC7)C6)CC5)nc4c2F)N2C[C@H]4CC[C@H](N4)[C@H]2[C@H](C)O3)c1C(F)(F)F
[A] 3.04

---

Readings of IC50 for the listed compounds
molecular target: KRAS G12D (Homo sapiens (Human), UniProt P01116, G12D); assay: KRAS G12D LoEnz Biochemical Assay, BODIPY-GDP Exchange TR-FRET (SOS1-mediated nucleotide exchange); settings: read-out: KRas (G12D) GDP HTRF IC50
Sequence (P01116-2 other isoform, or with tags, fused parts or gaps G12D): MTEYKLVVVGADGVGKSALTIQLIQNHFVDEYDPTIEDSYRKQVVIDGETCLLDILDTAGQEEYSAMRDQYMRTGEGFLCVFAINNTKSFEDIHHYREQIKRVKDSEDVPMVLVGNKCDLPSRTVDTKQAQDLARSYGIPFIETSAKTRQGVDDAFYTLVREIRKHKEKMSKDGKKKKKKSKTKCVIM
Be sure to follow the number with its unit.

Example entries and their recorded answers appear below.
{"columns": ["compound", "measured_on", "metric_name", "observed_measurement"],
 "data": [
  ["Cc1nc(N)cc(-c2nc3c4c(nc(OC[C@H]5N(C)C[C@@]56CC6(F)F)nc4c2F)N2C[C@H]4CC[C@H](N4)[C@H]2[C@H](C(F)(F)F)O3)c1C(F)(F)F (single isomer, unassigned) [262 (isomer 2)]", "KRAS G12D (Homo sapiens (Human), UniProt P01116, G12D)", "IC50", "7.02 nM"],
  ["C#Cc1cccc2cc(O)cc(-c3nc4c5c(nc(OC[C@@]67CCCN6C[C@H](F)C7)nc5c3F)N3C[C@H]5CC[C@H](CN5CC5COC5)[C@H]3CO4)c12", "KRAS G12D (Homo sapiens (Human), UniProt P01116, G12D)", "IC50", "0.3 nM"],
  ["Cc1c(F)c(N)cc(-c2nc3c4c(nc(OCC5C[C@@H]6C[N@@]5CCO6)nc4c2F)N2C[C@H]4CC[C@H](N4)[C@H]2[C@H](C)O3)c1C(F)(F)F (single isomer, unassigned) [151 (isomer 2)]", "KRAS G12D (Homo sapiens (Human), UniProt P01116, G12D)", "IC50", "0.12 nM"],
  ["COC1(CF)CN(CC2(COc3nc4c5c(nc(-c6cc(N)nc(C)c6C(F)(F)F)c(F)c5n3)O[C@@H](C)[C@@H]3[C@@H]5CC[C@H](CN43)N5)CC2)C1", "KRAS G12D (Homo sapiens (Human), UniProt P01116, G12D)", "IC50", "0.38 nM"]
]}

Continue with the next compound.
[Q] Can you share its IC50? I mean this compound: C[C@@H]1Oc2nc(-c3[nH]c(=O)cc4ccccc34)c(F)c3nc(OC[C@@]45CCCN4C[C@H](F)C5)nc(c23)N2C[C@H]3CC[C@H](N3)[C@@H]12
[A] 141 nM
